TARGET_SYSTEM: hEP2/Gqs5 (Homo sapiens, UniProt P43116)
Construct: expressed in transfected cells; host or cells: HEK-293(EBNA)
Sequence (P43116 whole entry): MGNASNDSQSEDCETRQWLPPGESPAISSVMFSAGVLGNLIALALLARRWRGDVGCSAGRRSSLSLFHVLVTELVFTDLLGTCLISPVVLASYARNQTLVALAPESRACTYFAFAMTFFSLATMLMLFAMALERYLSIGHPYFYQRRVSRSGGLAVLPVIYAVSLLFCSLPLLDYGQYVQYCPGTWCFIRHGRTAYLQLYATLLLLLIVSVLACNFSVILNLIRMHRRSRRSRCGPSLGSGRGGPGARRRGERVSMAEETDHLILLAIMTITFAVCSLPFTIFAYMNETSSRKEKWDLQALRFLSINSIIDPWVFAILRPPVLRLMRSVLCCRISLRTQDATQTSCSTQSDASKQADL
EXPERIMENT_SUMMARY: FLIPR calcium signal study, HEK-293(EBNA) cells
Assay type: cell-based
MEASUREMENT_CONTEXT: Table 2; unit inferred; read-out: FUNCTIONAL HEP2
Procedure: Cells were seeded at a density of 5x10^4 cells per well in Biocoat® Poly-D-lysine-coated black-wall, clear-bottom 96-well plates (Becton-Dickinson) and allowed to attach overnight in an incubator at 37 °C. […] Cells were excited with an Argon laser at 488 nm, and emission was measured through a 510-570 nm bandwidth emission filter (FLIPR™, Molecular Devices, Sunnyvale, CA). […] The peak increase in fluorescence intensity was recorded for each well. […]
READOUT: EC50 (µM)

[
  {
    "COMPOUND": "CCCCCC(O)c1ccc([C@H]2CCC(=O)[C@@H]2C/C=C\\CCCC(=O)OC)cc1 (stereo partly drawn) [drawing 96]",
    "READOUT": "EC50",
    "MEASURED_RESULT": 15
  },
  {
    "COMPOUND": "CCCCCC(O)c1ccc([C@H]2CC[C@@H](Cl)[C@@H]2CCCCCCC(=O)O)cc1 (stereo partly drawn)",
    "READOUT": "EC50",
    "MEASURED_RESULT": 15
  },
  {
    "COMPOUND": "CCCCC(O)Cc1ccc([C@H]2CCC(=O)[C@@H]2CCCCCCC(=O)O)cc1 (stereo partly drawn)",
    "READOUT": "EC50",
    "MEASURED_RESULT": 0.343
  }
]
